Tested on: HepG2-TUBA1B-RELA
Test: lowest phenotypically active concentration; higher = less potent
Settings: treatment time: 24 h
Where a name gives a salt, the structure may show the parent alone.
METRIC: lowest phenotypically active concentration

Check the records and state lowest phenotypically active concentration for COc1cc2c(NC3CCN(C(C)C)CC3)nc(C3CCCCC3)nc2cc1OCCCN1CCCC1
≤ 0.3 µM

Check the records and state lowest phenotypically active concentration for O=C(CCCc1ccc(-c2ccccc2F)cc1)Nc1ccc(O)cc1
3 µM

Check the records and state lowest phenotypically active concentration for COc1cc(OC2CCN(C)CC2)ccc1Nc1ncc2c(n1)n(C1CCCC1)c(=O)n2C
9 µM

Check the records and state lowest phenotypically active concentration for Cc1cc(C)cc(C(=O)NOCCCCCC(=O)NO)c1
≤ 0.3 µM

Check the records and state lowest phenotypically active concentration for Nc1ncnc2c1c(-c1cnc3[nH]ccc3c1)nn2C1CCCC1
≤ 0.3 µM

Check the records and state lowest phenotypically active concentration for C[C@@H](N)[C@H]1CC[C@H](C(=O)Nc2ccncc2)CC1
3 µM

Check the records and state lowest phenotypically active concentration for CCCCCCCCCCNCCSSCc1ccc(Cl)cc1
3 µM

Check the records and state lowest phenotypically active concentration for CCc1cc(-c2n[nH]c(C)c2-c2ccc3c(c2)OCCO3)c(O)cc1O
9 µM

Check the records and state lowest phenotypically active concentration for COCc1c(C(C)C)nc(C(C)C)c(/C=C/[C@@H](O)C[C@@H](O)CC(=O)O)c1-c1ccc(F)cc1
≤ 0.3 µM

Check the records and state lowest phenotypically active concentration for O=C(Nc1ccncc1)c1cc([N+](=O)[O-])ccc1Cl
9 µM

Check the records and state lowest phenotypically active concentration for CN1c2ccc([N+](=O)[O-])cc2N=C(c2ccc(C(=O)O)cc2)c2cc3c(cc21)C(C)(C)CCC3(C)C
9 µM

Check the records and state lowest phenotypically active concentration for Cc1cc(Nc2cc(C)c(C#N)c(NC(C)CCCC(C)(C)O)n2)n[nH]1 (centres undefined) [TC-A 2317 hydrochloride]
≤ 0.3 µM

Check the records and state lowest phenotypically active concentration for CC(C)(C)c1ccc(S(=O)(=O)/C=C/C#N)cc1
9 µM

Check the records and state lowest phenotypically active concentration for CCC(C)(C)C(=O)O[C@H]1C[C@@H](C)C=C2C=C[C@H](C)[C@H](CC[C@@H]3C[C@@H](O)CC(=O)O3)[C@H]21
1 µM

Check the records and state lowest phenotypically active concentration for COc1cc(N2CCC(O)CC2)ccc1Nc1cc(Nc2ccccc2S(=O)(=O)C(C)C)c2cc[nH]c2n1 [Mps1-IN-1 dihydrochloride]
1 µM

Check the records and state lowest phenotypically active concentration for C=C1CC[C@@H]2[C@](C)(CO)[C@H](O)CC[C@@]2(C)[C@@H]1C/C=C1/C(=O)OC[C@H]1O [Andrographolide]
3 µM

Check the records and state lowest phenotypically active concentration for COc1cc2c(Nc3ccc(Br)cc3F)ncnc2cc1OCC1CCN(C)CC1
1 µM

Check the records and state lowest phenotypically active concentration for Nc1ncn([C@@H]2O[C@H](CO)[C@@H](O)[C@H]2O)c(=O)n1
1 µM

Check the records and state lowest phenotypically active concentration for C=C1CN(Cc2ccc(C(=O)Nc3ccccc3N)cc2)C(=O)c2ccccc21
1 µM

###

I'd be grateful if you could share measured phenotypically active for these entries.
System: A549-CANX-COX4
Test: phenotypically active (imaging signature differs from DMSO and reproducible) at any of 0.3-9 uM (binary (1 = active, 0 = inactive)); higher = active
Settings: treatment time: 24 h
Structures can show the parent of a compound that is named as a salt.
Could you respond with only the numeric value?

Check the records and state phenotypically active for CO[C@H]1C=CC=C(C)C(=O)NC2=CC(=O)C(NCCN(C)C)=C(C[C@@H](C)C[C@H](OC)[C@H](O)[C@@H](C)C=C(C)[C@@H]1OC(N)=O)C2=O [17-DMAG hydrochloride]
1

Check the records and state phenotypically active for C=C(C)[C@@H]1CC[C@]2(C(=O)O)CC[C@]3(C)[C@H](CC[C@@H]4[C@@]5(C)CC[C@H](O)C(C)(C)[C@@H]5CC[C@]43C)[C@@H]12
0

Check the records and state phenotypically active for CCc1ccc(/C=C/C(=O)Nc2ccc(C(C)=O)cc2)o1
0

Check the records and state phenotypically active for C[C@]12CC[C@@H]3c4ccc(OS(=O)(=O)O)cc4CC[C@H]3[C@@H]1CCC2=O
0

Check the records and state phenotypically active for CC(C)n1c(/C=C/[C@@H](O)C[C@@H](O)CC(=O)O)c(-c2ccc(F)cc2)c2ccccc21.CC(C)n1c(/C=C/[C@H](O)C[C@H](O)CC(=O)O)c(-c2ccc(F)cc2)c2ccccc21 [Fluvastatin sodium]
1

Check the records and state phenotypically active for COCC(=O)N[C@@H](Cc1ccc(-c2cc(Cl)cc(Cl)c2)cc1)[C@H](O)[C@@H](O)C(=O)O
0

Check the records and state phenotypically active for O=C(/C=C/c1ccc(O)cc1)c1ccc(O)cc1O
0

Check the records and state phenotypically active for Nc1ncnc2c1c(COc1cccc(Cl)c1)nn2C1CCOCC1
0

Check the records and state phenotypically active for COc1c(C)cnc(Cn2cc(C#CCC(C)(C)O)c3c(Cl)nc(N)nc32)c1C
1

Check the records and state phenotypically active for CC(CN(C)C)CN1c2ccccc2CCc2ccccc21 (stereo not drawn)
0

Check the records and state phenotypically active for O=C(c1ccc(C(=O)N2CCC(N3CCCC3)CC2)c(Nc2ccccc2)c1)N1CCC(N2CCCC2)CC1
0

Check the records and state phenotypically active for NS(=O)(=O)Cc1noc2ccccc12 [zonisamide]
0

Check the records and state phenotypically active for Nc1cccc(-c2cc3c(Oc4cccc(O)c4)ncnc3[nH]2)c1
1

Check the records and state phenotypically active for Clc1ccc2nsnc2c1NC1=NCCN1
0

Check the records and state phenotypically active for CC(C)(C)c1cnc(CSc2cnc(NC(=O)C3CCNCC3)s2)o1
1

Check the records and state phenotypically active for O=C1N[C@@H]2[C@@H](O)[C@@H](O)[C@H](O)[C@@H](CO)N2C1=O
0

Check the records and state phenotypically active for Nc1ncnc2c1c(-c1ccc(Cl)cc1)nn2-c1cccc(-c2cnnn2Cc2cccc(-c3ccccc3)c2)c1
0

Check the records and state phenotypically active for COc1ccc([C@@H]2CC(=O)c3c(O)cc(O)cc3O2)cc1O
0

Check the records and state phenotypically active for CC[C@H](C)[C@H](NC(=O)OCc1ccccc1)C(=O)N[C@@H](CCC(=O)OC(C)(C)C)C(=O)N[C@@H](C)C(=O)N[C@H](C=O)CC(C)C
1

Check the records and state phenotypically active for Fc1ccc([C@@H]2CCNC[C@H]2COc2ccc3c(c2)OCO3)cc1
0

Check the records and state phenotypically active for C[C@H](N[C@@H](CCc1ccccc1)C(=O)O)C(=O)N1CCC[C@H]1C(=O)O
0

Check the records and state phenotypically active for COc1ccc(S(=O)(=O)ON=C2C=C(C)C(=O)C(C)=C2)cc1
0

Check the records and state phenotypically active for CCc1cncnc1N1CCN(Cc2nc3cc(C(F)(F)F)ccc3[nH]2)CC1
1

Check the records and state phenotypically active for COc1ccccc1OCC(O)CN1CCN(CC(=O)Nc2c(C)cccc2C)CC1 (stereo not drawn)
0

Check the records and state phenotypically active for CCCc1nc(C)c2c(C)nc3ccc(OC)nc3n12
0

Check the records and state phenotypically active for CCC1(O)CC2CN(CCc3c([nH]c4ccccc34)C(C(=O)OC)(c3cc4c(cc3OC)N(C)C3C(O)(C(=O)OC)C(OC(C)=O)C5(CC)C=CCN6CCC43C65)C2)C1 (stereo not drawn) [Vinblastine sulfate]
1

Check the records and state phenotypically active for N=C(N)NC(=N)NCCc1ccccc1
1

Check the records and state phenotypically active for O=C1NC(=O)[C@@H](c2cn3c4c(cccc24)CCC3)[C@@H]1c1c[nH]c2ccccc12 [tivantinib]
1

Check the records and state phenotypically active for Cc1ccc(-n2nc(C(C)(C)C)cc2NC(=O)Nc2ccc(OCCN3CCOCC3)c3ccccc23)cc1
1

Check the records and state phenotypically active for CN1CC[C@H](c2c(O)cc(O)c3c(=O)cc(-c4ccccc4Cl)oc23)[C@H](O)C1 [Flavopiridol hydrochloride]
1

Check the records and state phenotypically active for Cc1cccc(CN2CCN(C(c3ccccc3)c3ccc(Cl)cc3)CC2)c1 (stereo not drawn) [Meclizine dihydrochloride]
0

Check the records and state phenotypically active for COc1ccc(CCN(C)CCCC(C#N)(c2ccc(OC)c(OC)c2)C(C)C)cc1OC (stereo not drawn)
0

Check the records and state phenotypically active for CN1C(CSCC(F)(F)F)Nc2cc(Cl)c(S(N)(=O)=O)cc2S1(=O)=O (stereo not drawn) [polythiazide]
0

###

Tested on: WPMY1-GM130-SQSTM1
Experiment: phenotypically active (imaging signature differs from DMSO and reproducible) at any of 0.3-9 uM (binary (1 = active, 0 = inactive)); higher = active
Conditions: treatment time: 24 h
API: response.call in 1 (yes) (active), 0 (no) (inactive)

Would you mind telling me which call this test gave N[C@@H](Cc1ccc(O)c(O)c1)C(=O)O [levodopa] ?
0 (no)

Would you mind telling me which call this test gave Cc1c(F)cc(C(=O)NC2CC2)cc1-c1ccc(C(=O)NCC(C)(C)C)cn1 [losmapimod] ?
0 (no)

Would you mind telling me which call this test gave CC1(C(=O)O)CCC2(C)CCC3(C)C(=CC(=O)C4C5(C)CCC(OC6OC(C(=O)O)C(O)C(O)C6OC6OC(C(=O)O)C(O)C(O)C6O)C(C)(C)C5CCC43C)C2C1 (centres undefined) [Glycyrrhizic acid] ?
0 (no)

Would you mind telling me which call this test gave CC(C)c1ccc2oc3nc(N)c(C(=O)O)cc3c(=O)c2c1 [Amlexanox] ?
0 (no)

Would you mind telling me which call this test gave O=C1N=C(NCc2cccs2)S/C1=C\c1ccc2ncccc2c1 ?
1 (yes)

Would you mind telling me which call this test gave Cc1nc[nH]c1C1CCN(c2nc3cccc4c3n2CCC4=O)CC1 ?
0 (no)

Would you mind telling me which call this test gave CC(C)(C)NCC(O)c1ccc(O)c(CO)c1 (centres undefined) [albuterol] ?
0 (no)

Would you mind telling me which call this test gave CCCCc1oc2ccccc2c1C(=O)c1cc(I)c(OCCN(CC)CC)c(I)c1 [amiodarone] ?
1 (yes)

Would you mind telling me which call this test gave O=C(O)c1cc(=O)c(O)c(C(=O)O)o1 [Meconic acid] ?
0 (no)
